organism: Rattus norvegicus; assay: DrugMatrix - Regimen: Daily Repeat; format: toxicity, organism-based, Sprague-Dawley; design: regimen Daily Repeat, gender Male, age 6-8 weeks; details: in vivo, po, 0 mg/kg, 120 h, tissue Plasma, route oral GAVAGE, dose level Control, time 5 day, […]
Kindly return criterion met if reported CARBON DIOXIDE is no lower than 30 mmol/L; return criterion not met if it is lower.

| compound | cat |
| --- | --- |
| CCC(C)n1ncn(-c2ccc(N3CCN(c4ccc(OCC5COC(Cn6cncn6)(c6ccc(Cl)cc6Cl)O5)cc4)CC3)cc2)c1=O (stereo unspecified) | criterion not met |
| CN(C)c1nc(N(C)C)nc(N(C)C)n1 | criterion not met |
| CC(C)(Oc1ccc(Cl)cc1)C(=O)O | criterion not met |
| C[C@@H]1CN(c2c(F)c(N)c3c(=O)c(C(=O)O)cn(C4CC4)c3c2F)C[C@H](C)N1 | criterion not met |
| O=NN(CCCl)C(=O)NC1CCCCC1 | criterion not met |
| Cc1oncc1C(=O)Nc1ccc(C(F)(F)F)cc1 [LEFLUNOMIDE] | criterion met |
| Cc1ccc(-c2cc(C(F)(F)F)nn2-c2ccc(S(N)(=O)=O)cc2)cc1 | criterion not met |
| CC(C)C(=O)Nc1ccc([N+](=O)[O-])c(C(F)(F)F)c1 [FLUTAMIDE] | criterion met |
| O=C(O)CCCc1ccc(N(CCCl)CCCl)cc1 | criterion not met |
| CCOC(=O)C1=C(COCCN)NC(C)=C(C(=O)OC)C1c1ccccc1Cl (stereo unspecified) | criterion not met |

---

organism: Rattus norvegicus; test: DrugMatrix - Regimen: Daily Repeat; type: toxicity, organism-based, Sprague-Dawley; design: regimen Daily Repeat, gender Male, age 6-8 weeks; settings: in vivo, po, 0 mg/kg, 120 h, tissue Blood, route oral GAVAGE, dose level Control, time 5 day, […]
quantity_name: MEAN CORPUSCULAR HEMOGLOBIN (pg)

| compound | recorded_result |
| --- | --- |
| C[C@@H]1CN(c2c(F)c(N)c3c(=O)c(C(=O)O)cn(C4CC4)c3c2F)C[C@H](C)N1 | 24.27 |
| C[C@H]1O[C@@H](O[C@H]2[C@@H](O)C[C@H](O[C@H]3[C@@H](O)C[C@H](O[C@H]4CC[C@@]5(C)[C@H](CC[C@@H]6[C@@H]5C[C@@H](O)[C@]5(C)[C@@H](C7=CC(=O)OC7)CC[C@]65O)C4)O[C@@H]3C)O[C@@H]2C)C[C@H](O)[C@@H]1O | 24.68 |
| Cc1noc(NS(=O)(=O)c2ccc(N)cc2)c1C | 24.42 |
| CCC(C)n1ncn(-c2ccc(N3CCN(c4ccc(OCC5COC(Cn6cncn6)(c6ccc(Cl)cc6Cl)O5)cc4)CC3)cc2)c1=O (centres undefined) | 25.17 |
| O=NN(CCCl)C(=O)NC1CCCCC1 | 24.27 |
| CCOC(=O)C1=C(COCCN)NC(C)=C(C(=O)OC)C1c1ccccc1Cl (centres undefined) | 24.27 |
| OC(Cn1cncn1)(Cn1cncn1)c1ccc(F)cc1F | 25.17 |
| CC(C)C(=O)Nc1ccc([N+](=O)[O-])c(C(F)(F)F)c1 [FLUTAMIDE] | 23.83 |
| Cc1ccc(-c2cc(C(F)(F)F)nn2-c2ccc(S(N)(=O)=O)cc2)cc1 | 25.17 |
| Cc1oncc1C(=O)Nc1ccc(C(F)(F)F)cc1 [LEFLUNOMIDE] | 25 |
| CC(C)(Oc1ccc(Cl)cc1)C(=O)O | 24.42 |
| O=C(O)CCCc1ccc(N(CCCl)CCCl)cc1 | 25.17 |
| CN(C)c1nc(N(C)C)nc(N(C)C)n1 | 24.27 |
| O=c1oc2ccccc2c(O)c1Cc1c(O)c2ccccc2oc1=O | 24.13 |

Data origin, for the record: ChEMBL document CHEMBL3885881
